I'd appreciate it if you could supply DR/DR AA values for the items below.
- test name: Probe fluorescence ratio response to arachidonic acid relative to ADIFAB2
- Format: binding
- conditions: arachidonic acid; response relative to ADIFAB2
- Excerpt: In an alternate preferred embodiment, the protein is rI-FABP that has Ala substituted for Leu at position 72 (rI-FABP-L72A) with the resulting probe named ADIFAB2. […] ADIFAB2 also has an altered spectral response, making it especially useful for measurements of FFAu in blood samples (Apple et al, Clinical Proteomics, (2004) 1:41-44, U.S. patent application Ser. No. 10/670,958). […] The baseline value for this ratio, measured in the absence of analyte, is designated R0. […]
Answers are plain numbers.

# batch: return DR/DR AA for each of the 3 molecules below
1. 72T 74S (protein, listed as Rattus norvegicus, PEPTIDE (1)...(131) wild-type rat intestinal fatty acid binding protein) AFDGTWKVDRNENYEKFMEKMGINVVKRKLGAHDNLKLTITQEGNKFTVKESSNFRNIDVVFELGVDFAYSTASGTELTGTWTMEGNKLVGKFKRVDNGKELIAVREISGNELIQTYTYEGVEAKRIFKKE
2. 11Y1, 72A (protein, listed as Rattus norvegicus, PEPTIDE (1)...(131) wild-type rat intestinal fatty acid binding protein) AFDGTWKVDRYENYEKFMEKMGINVVKRKLGAHDNLKLTITQEGNKFTVKESSNFRNIDVVFELGVDFAYSAADGTELTGTWTMEGNKLVGKFKRVDNGKELIAVREISGNELIQTYTYEGVEAKRIFKKE
3. 91Y, 72A (protein, listed as Rattus norvegicus, PEPTIDE (1)...(131) wild-type rat intestinal fatty acid binding protein) AFDGTWKVDRNENYEKFMEKMGINVVKRKLGAHDNLKLTITQEGNKFTVKESSNFRNIDVVFELGVDFAYSAADGTELTGTWTMEGNKLVYKFKRVDNGKELIAVREISGNELIQTYTYEGVEAKRIFKKE

2.035
0.52
1.273

# batch: return DR/DR AA for each of the 3 molecules below
1. 115E1, 72A (protein, listed as Rattus norvegicus, PEPTIDE (1)...(131) wild-type rat intestinal fatty acid binding protein) AFDGTWKVDRNENYEKFMEKMGINVVKRKLGAHDNLKLTITQEGNKFTVKESSNFRNIDVVFELGVDFAYSAADGTELTGTWTMEGNKLVGKFKRVDNGKELIAVREISGNELIETYTYEGVEAKRIFKKE
2. 115A1, 72A (protein, listed as Rattus norvegicus, PEPTIDE (1)...(131) wild-type rat intestinal fatty acid binding protein) AFDGTWKVDRNENYEKFMEKMGINVVKRKLGAHDNLKLTITQEGNKFTVKESSNFRNIDVVFELGVDFAYSAADGTELTGTWTMEGNKLVGKFKRVDNGKELIAVREISGNELIATYTYEGVEAKRIFKKE
3. 18V 31A 73W 72A (protein, listed as Rattus norvegicus, PEPTIDE (1)...(131) wild-type rat intestinal fatty acid binding protein) AFDGTWKVDRNENYEKFVEKMGINVVKRKLAAHDNLKLTITQEGNKFTVKESSNFRNIDVVFELGVDFAYSAWDGTELTGTWTMEGNKLVGKFKRVDNGKELIAVREISGNELIQTYTYEGVEAKRIFKKE

1. 0.12
2. 1.17
3. 1.761
